target: Dipeptidyl peptidase 4 (Homo sapiens, UniProt P27487); assay: Inhibition of human recombinant DPP4
Sequence (P27487 whole entry): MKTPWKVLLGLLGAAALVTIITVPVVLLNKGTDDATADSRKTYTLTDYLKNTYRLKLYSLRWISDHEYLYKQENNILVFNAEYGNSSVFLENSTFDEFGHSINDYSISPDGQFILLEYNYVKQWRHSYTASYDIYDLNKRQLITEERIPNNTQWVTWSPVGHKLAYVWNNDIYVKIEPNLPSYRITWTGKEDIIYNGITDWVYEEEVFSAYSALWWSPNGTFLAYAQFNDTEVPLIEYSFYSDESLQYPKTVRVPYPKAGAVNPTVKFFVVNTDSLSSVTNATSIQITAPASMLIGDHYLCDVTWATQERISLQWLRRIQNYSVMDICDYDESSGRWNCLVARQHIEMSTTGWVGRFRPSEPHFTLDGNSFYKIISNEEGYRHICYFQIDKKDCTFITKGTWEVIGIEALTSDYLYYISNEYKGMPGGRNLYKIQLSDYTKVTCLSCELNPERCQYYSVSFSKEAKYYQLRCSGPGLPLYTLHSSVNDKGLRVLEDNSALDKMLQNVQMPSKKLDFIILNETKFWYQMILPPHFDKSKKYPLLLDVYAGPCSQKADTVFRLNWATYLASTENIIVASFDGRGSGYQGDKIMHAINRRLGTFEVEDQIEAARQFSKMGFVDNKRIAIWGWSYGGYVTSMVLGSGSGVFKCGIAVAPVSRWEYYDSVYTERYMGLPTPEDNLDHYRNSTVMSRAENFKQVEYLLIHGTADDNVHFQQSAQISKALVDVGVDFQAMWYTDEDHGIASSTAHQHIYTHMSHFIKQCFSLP
pKi: −log10 of the molar value.
property: pKi

Lab note: N#C[C@@H]1CCCN1C(=O)[C@@H]1CC[C@H](COc2ccccc2Cc2ccccc2)N1 gave pKi of < 5.52

###

test: Half life in phosphate buffer at pH 7.4 at 37 degreeC; type: ADME
property: half-life (h)
Expressed in h, but write only the number.

Known results for compounds:
{"smiles_text": "N#C[C@@H]1CCCN1C(=O)[C@@H]1CC[C@H](COc2ccc3ccccc3c2)N1", "half-life, h": 10.8}
{"smiles_text": "C[C@H]1CC[C@@H](C(=O)N2CCC[C@H]2C#N)N1", "half-life, h": 6.5}
{"smiles_text": "CC(C)(C)c1cc(C(=O)O)ccc1OC[C@H]1CC[C@@H](C(=O)N2CCC[C@H]2C#N)N1", "half-life, h": 65.4}
{"smiles_text": "CC[C@H]1CC[C@@H](C(=O)N2CCC[C@H]2C#N)N1", "half-life, h": 16.4}
{"smiles_text": "N#C[C@@H]1CCCN1C(=O)[C@@H]1CC[C@H](COc2ccc(Br)cc2)N1", "half-life, h": 7.8}

Kindly consider the entry below.
Lab note: N#Cc1ccc(OC[C@H]2CC[C@@H](C(=O)N3CCC[C@H]3C#N)N2)c(Cl)c1 gave half-life of 16.7

###

test: Volume of distribution in Sprague-Dawley rat at 5 mg/kg; assay type: ADME, organism-based; set-up: dose 5 mg/kg; conditions: in vivo, read-out: Vdss
property: Vd (L/kg)
Expressed in L/kg, but write only the number.

Known results for compounds:
{"smiles_text": "CS(=O)(=O)c1ccc(OC[C@H]2CC[C@@H](C(=O)N3CCC[C@H]3C#N)N2)c(Br)c1", "quantitative_readout": 0.3}
{"smiles_text": "CC(C)c1cc(C(=O)O)ccc1OC[C@H]1CC[C@@H](C(=O)N2CCC[C@H]2C#N)N1", "quantitative_readout": 0.73}
{"smiles_text": "N#C[C@@H]1CCCN1C(=O)[C@@H]1CC[C@H](COc2cc([N+](=O)[O-])c(Cl)cc2Cl)N1", "quantitative_readout": 0.22}

Kindly consider the entry below.
Lab note: C[C@H]1CC[C@@H](C(=O)N2CCC[C@H]2C#N)N1 gave Vd of 13.5

###

assay: Cmax in Sprague-Dawley rat at 5 mg/kg, po; type: ADME, organism-based; set-up: dose 5 mg/kg, route oral; conditions: in vivo
property: Cmax (ng/mL)
Expressed in ng/mL, but write only the number.

{"molecule": "CC(C)(C)c1ccccc1OC[C@H]1CC[C@@H](C(=O)N2CCC[C@H]2C#N)N1", "unit_info": "ng/mL", "Cmax": 25.2}
{"molecule": "N#C[C@@H]1CCCN1C(=O)[C@@H]1CC[C@H](COc2cc([N+](=O)[O-])c(Cl)cc2Cl)N1", "unit_info": "ng/mL", "Cmax": 805}
{"molecule": "N#C[C@@H]1CCCN1C(=O)[C@@H]1CC[C@H](COc2cc(C(=O)O)cnc2Cl)N1", "unit_info": "ng/mL", "Cmax": 29}

Lab note: CC(C)c1cc(C(=O)O)ccc1OC[C@H]1CC[C@@H](C(=O)N2CCC[C@H]2C#N)N1 gave Cmax of 2470

Lab note: C[C@H]1CC[C@@H](C(=O)N2CCC[C@H]2C#N)N1 gave Cmax of 752

Lab note: CC(C)(C)c1cc(C(=O)O)ccc1OC[C@H]1CC[C@@H](C(=O)N2CCC[C@H]2C#N)N1 gave Cmax of 5580

Lab note: CS(=O)(=O)c1ccc(OC[C@H]2CC[C@@H](C(=O)N3CCC[C@H]3C#N)N2)c(Br)c1 gave Cmax of 3730

Lab note: N#C[C@@H]1CCCN1C(=O)[C@@H]1CC[C@H](COc2cc(C(=O)O)ccc2Cl)N1 (mixture of isomers) gave Cmax of 146

Lab note: N#Cc1ccc(OC[C@H]2CC[C@@H](C(=O)N3CCC[C@H]3C#N)N2)c(Cl)c1 gave Cmax of 4540

###

Reported half-life is given for each of the following molecules.
experiment: Half life in phosphate buffer at pH 7.4 at 37 degreeC; assay type: ADME

{"molecule": "CC(C)[C@H]1CC[C@@H](C(=O)N2CCC[C@H]2C#N)N1 (mixture of isomers)", "property": "half-life", "result": "> 6000 min"}
{"molecule": "N#C[C@@H]1CCCN1C(=O)[C@@H]1CC[C@H](COc2cc(C(=O)O)ccc2Cl)N1 (mixture of isomers)", "property": "half-life", "result": "> 6000 min"}

Lab note: N#C[C@@H]1CCCN1C(=O)[C@@H]1CCCN1 gave half-life of 78 min

Lab note: N#C[C@@H]1CCCN1C(=O)[C@@H]1CC[C@H](COc2ccc(C(=O)O)cc2Cl)N1 gave half-life of 1190 min

Lab note: CC(C)(C)c1ccccc1OC[C@H]1CC[C@@H](C(=O)N2CCC[C@H]2C#N)N1 gave half-life of 2470 min
